Reported pIC50 values are given for each entry in this list.
- tested system: Human CYP2C8 (Homo sapiens)
- Sequence (P10632 whole entry): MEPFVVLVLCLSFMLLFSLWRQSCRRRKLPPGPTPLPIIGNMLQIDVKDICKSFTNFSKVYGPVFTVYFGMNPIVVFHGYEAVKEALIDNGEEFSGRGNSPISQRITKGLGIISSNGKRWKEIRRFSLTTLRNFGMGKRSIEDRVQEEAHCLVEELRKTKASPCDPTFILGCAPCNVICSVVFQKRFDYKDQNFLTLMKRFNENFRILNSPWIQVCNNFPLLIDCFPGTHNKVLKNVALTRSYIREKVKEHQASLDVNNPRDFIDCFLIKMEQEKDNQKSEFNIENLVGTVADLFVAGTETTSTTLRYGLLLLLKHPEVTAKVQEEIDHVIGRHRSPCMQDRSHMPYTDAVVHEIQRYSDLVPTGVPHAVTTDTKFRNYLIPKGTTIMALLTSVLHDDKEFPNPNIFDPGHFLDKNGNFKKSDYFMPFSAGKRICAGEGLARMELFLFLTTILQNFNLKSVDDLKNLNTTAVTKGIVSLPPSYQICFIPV
pIC50: −log10 of the molar value.
observation type: pIC50

INSERT INTO results (given_smiles, tested_system, observation_type, test_result) VALUES
  ('COc1cc2nccc(Oc3ccc(NC(=O)c4cc(C(C)=O)cn(-c5ccccc5)c4=O)nc3)c2cc1OC', 'Human CYP2C8 (Homo sapiens)', 'pIC50', '< 5.00'),
  ('COc1cc2nccc(Oc3ccc(NC(=O)c4c5c(cn(-c6ccccc6)c4=O)C(=O)CCC5)nc3)c2cc1OC', 'Human CYP2C8 (Homo sapiens)', 'pIC50', '< 5.00');

---

Quick reference: pIC50 of the listed items.
- tested system: Axl enzyme (Homo sapiens, UniProt P30530)
- Sequence (P30530 26-894): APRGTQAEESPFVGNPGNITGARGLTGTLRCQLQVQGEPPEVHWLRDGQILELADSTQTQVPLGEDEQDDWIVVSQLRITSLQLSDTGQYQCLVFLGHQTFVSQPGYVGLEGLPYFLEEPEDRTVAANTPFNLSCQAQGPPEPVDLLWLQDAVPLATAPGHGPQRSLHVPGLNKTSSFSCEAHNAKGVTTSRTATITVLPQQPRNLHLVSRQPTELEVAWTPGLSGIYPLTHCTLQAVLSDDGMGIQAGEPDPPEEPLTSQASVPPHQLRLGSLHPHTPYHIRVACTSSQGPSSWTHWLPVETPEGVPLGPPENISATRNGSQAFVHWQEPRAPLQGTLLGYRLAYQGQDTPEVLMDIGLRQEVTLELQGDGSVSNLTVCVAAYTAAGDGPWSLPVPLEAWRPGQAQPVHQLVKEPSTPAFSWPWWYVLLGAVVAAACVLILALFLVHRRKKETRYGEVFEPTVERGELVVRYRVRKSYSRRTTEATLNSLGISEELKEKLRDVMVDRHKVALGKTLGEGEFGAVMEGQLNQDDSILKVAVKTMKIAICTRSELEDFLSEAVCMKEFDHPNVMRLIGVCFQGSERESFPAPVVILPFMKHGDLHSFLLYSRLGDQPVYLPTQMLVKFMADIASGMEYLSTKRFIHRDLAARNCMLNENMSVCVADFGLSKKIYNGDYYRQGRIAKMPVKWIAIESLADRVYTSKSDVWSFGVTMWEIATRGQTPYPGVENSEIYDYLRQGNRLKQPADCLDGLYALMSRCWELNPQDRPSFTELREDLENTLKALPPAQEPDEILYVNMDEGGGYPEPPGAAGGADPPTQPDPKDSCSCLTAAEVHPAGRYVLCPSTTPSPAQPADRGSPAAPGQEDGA
- test method notes: Measurement of Axl inhibitory activity (LanthaScreen TR-FRET, in vitro test)
- Type: biochemical
- assay setup: Fluorescein-Poly GT substrate
pIC50: −log10 of the molar value.
observation type: pIC50

INSERT INTO measurements (compound, bound_operator, test_result) VALUES
  ('COc1cc2nccc(Oc3ccc(NC(=O)c4cc5ccc(N)cc5n(-c5ccccc5)c4=O)nc3)c2cc1OC', '=', 8.40),
  ('CC#CC(=O)N1CCc2cc(C(=O)Nc3ccc(Oc4ccnc5cc(OC)c(OC)cc45)cn3)c(=O)n(-c3ccccc3)c2C1', '=', 8.82),
  ('COc1cc2nccc(Oc3ccc(NC(=O)c4cc5ccccc5[nH]c4=O)cc3)c2cc1OC [Comparative compound A, reference compound]', '<', 5.00);
